# system_tested: Acetylcholinesterase (Electrophorus electricus)
# Sequence (O42275 whole entry): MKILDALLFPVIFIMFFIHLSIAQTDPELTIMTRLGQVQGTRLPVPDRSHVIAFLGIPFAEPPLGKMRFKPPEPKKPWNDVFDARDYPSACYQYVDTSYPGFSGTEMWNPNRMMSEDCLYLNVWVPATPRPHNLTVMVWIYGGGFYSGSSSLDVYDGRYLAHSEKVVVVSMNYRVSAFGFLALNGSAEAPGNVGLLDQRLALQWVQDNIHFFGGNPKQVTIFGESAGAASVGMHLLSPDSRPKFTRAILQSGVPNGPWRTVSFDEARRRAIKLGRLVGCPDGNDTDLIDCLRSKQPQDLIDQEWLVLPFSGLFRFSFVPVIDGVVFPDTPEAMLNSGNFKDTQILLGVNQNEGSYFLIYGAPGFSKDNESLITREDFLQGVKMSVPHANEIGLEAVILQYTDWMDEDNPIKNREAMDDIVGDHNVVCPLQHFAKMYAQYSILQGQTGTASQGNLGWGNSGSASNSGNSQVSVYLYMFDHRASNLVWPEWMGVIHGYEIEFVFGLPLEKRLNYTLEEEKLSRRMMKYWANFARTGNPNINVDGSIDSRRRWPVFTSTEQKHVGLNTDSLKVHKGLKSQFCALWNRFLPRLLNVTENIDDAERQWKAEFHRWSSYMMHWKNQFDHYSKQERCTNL
# method: Inhibition of electric eel AChE using acetylthiocholine iodide as substrate after 15 mins by Ellman method
# study_conditions: read-out: IC50
Values of IC50 strictly less than 6 µM map to Yes, and values of at least 6 µM map to No.

# mol, assigned_class
records = [
    ("CCN(CCCNC(=O)c1cc(=O)c2c(O)cccc2o1)Cc1ccccc1OC", "No"),
    ("COc1ccccc1CN(C)CCCCNC(=O)c1cc(=O)c2c(O)cccc2o1", "Yes"),
    ("C#CCN(CCCCNC(=O)c1cc(=O)c2c(O)cc(OC)cc2o1)Cc1ccccc1OC", "No"),
    ("CCOC(=O)c1cc(=O)c2c(O)cccc2o1", "No"),
    ("CCN(CCCNC(=O)c1cc(=O)c2c(O)cc(O)cc2o1)Cc1ccccc1OC", "No"),
    ("COc1cc(O)c2c(=O)cc(C(=O)NCCCN(C)Cc3ccccc3OC)oc2c1", "No"),
    ("CCN(CCCNC(=O)c1cc(=O)c2c(O)cc(OC)cc2o1)Cc1ccccc1OC", "Yes"),
    ("CCN(CCCCNC(=O)c1cc(=O)c2c(O)cc(OC)cc2o1)Cc1ccccc1", "Yes"),
    ("CCN(CCCCCCNC(=O)c1cc(=O)c2c(O)cc(OC)cc2o1)Cc1ccccc1", "Yes"),
    ("CCN(CCCCNC(=O)c1cc(=O)c2c(O)cc(OC)cc2o1)Cc1ccccc1N(C)C", "Yes"),
    ("COc1cc(O)c2c(=O)cc(C(=O)NCCCN(C)Cc3ccccc3)oc2c1", "Yes"),
    ("CCN(CCCCNC(=O)c1cc(=O)c2c(O)cccc2o1)Cc1ccccc1OC", "Yes"),
    ("COc1cc(O)c2c(=O)cc(C(=O)NCCCCN(C)Cc3ccccc3OC)oc2c1", "Yes"),
    ("CCN(CCCNC(=O)c1cc(=O)c2c(O)cc(OC)cc2o1)Cc1ccccc1", "No"),
]

----------
# system_tested: Acetylcholinesterase (Rattus norvegicus)
# method: Inhibition of AChE from rat cortex homogenate using acetylthiocholine iodide as substrate after 15 mins by Ellman method
pIC50: −log10 of the molar value.
Record 1 whenever pIC50 is at 6 or higher; record 0 when lower.

# mol, system_tested, assigned_class
rows = [
    ("COc1cc(O)c2c(=O)cc(C(=O)NCCCCCCN(C)Cc3ccccc3OC)oc2c1", "Acetylcholinesterase (Rattus norvegicus)", 0),
    ("COc1cc(O)c2c(=O)cc(C(=O)NCCCCN3CCOc4ccccc4C3)oc2c1", "Acetylcholinesterase (Rattus norvegicus)", 0),
    ("CCN(CCCCCCNC(=O)c1cc(=O)c2c(O)cc(OC)cc2o1)Cc1ccccc1", "Acetylcholinesterase (Rattus norvegicus)", 0),
    ("CCN(CCCCNC(=O)c1cc(=O)c2c(O)cc(OC)cc2o1)Cc1ccccc1N(C)C", "Acetylcholinesterase (Rattus norvegicus)", 1),
    ("C#CCN(CCCCNC(=O)c1cc(=O)c2c(O)cc(OC)cc2o1)Cc1ccccc1OC", "Acetylcholinesterase (Rattus norvegicus)", 0),
    ("CCN(CCCCCCNC(=O)c1cc(=O)c2c(O)cc(OC)cc2o1)Cc1ccccc1OC", "Acetylcholinesterase (Rattus norvegicus)", 1),
    ("CCN(CCCCNC(=O)c1cc(=O)c2c(O)cc(OC)cc2o1)Cc1ccccc1", "Acetylcholinesterase (Rattus norvegicus)", 0),
    ("COc1cc(O)c2c(=O)cc(C(=O)NCCCCN(C)Cc3ccccc3)oc2c1", "Acetylcholinesterase (Rattus norvegicus)", 0),
    ("CCOC(=O)c1cc(=O)c2c(O)cccc2o1", "Acetylcholinesterase (Rattus norvegicus)", 0),
    ("CN(CCCNC(=O)c1cc(=O)c2c(O)cccc2o1)Cc1ccccc1", "Acetylcholinesterase (Rattus norvegicus)", 0),
    ("CCN(CCCNC(=O)c1cc(=O)c2c(O)cc(OC)cc2o1)Cc1ccccc1", "Acetylcholinesterase (Rattus norvegicus)", 0),
    ("CCN(CCCCNC(=O)c1cc(=O)c2c(O)cccc2o1)Cc1ccccc1OC", "Acetylcholinesterase (Rattus norvegicus)", 1),
    ("CCN(CCCNC(=O)c1cc(=O)c2c(O)cc(O)cc2o1)Cc1ccccc1OC", "Acetylcholinesterase (Rattus norvegicus)", 0),
    ("COc1cc(O)c2c(=O)cc(C(=O)NCCCN(C)Cc3ccccc3OC)oc2c1", "Acetylcholinesterase (Rattus norvegicus)", 0),
    ("CCN(CCCCNC(=O)c1cc(=O)c2c(O)cc(OC)cc2o1)Cc1ccccc1OC", "Acetylcholinesterase (Rattus norvegicus)", 1),
    ("O=C(O)c1cc(=O)c2c(O)cc(O)cc2o1", "Acetylcholinesterase (Rattus norvegicus)", 0),
    ("CCN(CCCCCCNC(=O)c1cc(=O)c2c(O)cccc2o1)Cc1ccccc1OC", "Acetylcholinesterase (Rattus norvegicus)", 1),
]

----------
# system_tested: Acetylcholinesterase (Rattus norvegicus, UniProt P37136)
# Sequence (P37136 whole entry): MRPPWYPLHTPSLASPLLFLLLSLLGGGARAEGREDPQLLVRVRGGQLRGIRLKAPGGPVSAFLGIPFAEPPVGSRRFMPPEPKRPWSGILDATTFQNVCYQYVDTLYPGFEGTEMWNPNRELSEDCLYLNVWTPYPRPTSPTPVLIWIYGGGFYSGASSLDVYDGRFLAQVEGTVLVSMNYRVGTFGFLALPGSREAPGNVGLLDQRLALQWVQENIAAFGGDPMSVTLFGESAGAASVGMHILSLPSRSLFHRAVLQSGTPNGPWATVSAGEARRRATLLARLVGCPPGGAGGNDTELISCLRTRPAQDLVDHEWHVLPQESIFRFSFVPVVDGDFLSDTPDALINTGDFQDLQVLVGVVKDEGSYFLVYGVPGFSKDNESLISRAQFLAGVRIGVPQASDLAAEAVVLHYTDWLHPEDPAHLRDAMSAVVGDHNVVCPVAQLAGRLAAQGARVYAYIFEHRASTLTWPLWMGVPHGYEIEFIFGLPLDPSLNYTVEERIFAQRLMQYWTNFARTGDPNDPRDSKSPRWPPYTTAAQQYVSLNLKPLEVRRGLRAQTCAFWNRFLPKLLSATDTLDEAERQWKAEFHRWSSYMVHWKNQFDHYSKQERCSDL
# method: Inhibition of AChE from rat cortex homogenate using acetylthiocholine iodide as substrate after 15 mins by Ellman method
Values of IC50 strictly less than 3 µM map to yes (1), and values of at least 3 µM map to no (0).

# mol, assigned_class
rows = [
    ("CCN(CCCCNC(=O)c1cc(=O)c2c(O)cc(O)cc2o1)Cc1ccccc1OC", "yes (1)"),
    ("COc1ccccc1CN(C)CCCNC(=O)c1cc(=O)c2c(O)cccc2o1", "no (0)"),
    ("CCN(CCCCNC(=O)c1cc(=O)c2c(O)cc(OC)cc2o1)Cc1ccc(N(C)C)cc1", "no (0)"),
    ("COc1cc(O)c2c(=O)cc(C(=O)O)oc2c1", "no (0)"),
    ("COc1cc(O)c2c(=O)cc(C(=O)NCCCN(C)Cc3ccccc3)oc2c1", "no (0)"),
    ("CCN(CCCNC(=O)c1cc(=O)c2c(O)cccc2o1)Cc1ccccc1OC", "yes (1)"),
    ("CCN(CCCCNC(=O)c1cc(=O)c2c(O)cc(N(C)C)cc2o1)Cc1ccccc1N(C)C", "yes (1)"),
    ("CN(C)c1cc(O)c2c(=O)cc(C(=O)O)oc2c1", "no (0)"),
    ("COc1cc(O)c2c(=O)cc(C(=O)NCCCCN(C)Cc3ccccc3OC)oc2c1", "yes (1)"),
]

----------
# method: Inhibition of rat serum BuChE using butyrylthiocholine iodide as substrate after 15 mins by Ellman method
# Assay type: cell-free
pIC50: −log10 of the molar value.
Attribute: pIC50

# mol, pIC50
measured = [
    ("COc1cc(O)c2c(=O)cc(C(=O)O)oc2c1", "< 3.70"),
    ("O=C(O)c1cc(=O)c2c(O)cc(O)cc2o1", "< 3.70"),
    ("CCOC(=O)c1cc(=O)c2c(O)cccc2o1", "< 3.70"),
]

----------
# method: Antioxidant activity assessed as AAPH scavenging activity measured as trolox equivalent at 5 uM after 15 mins by ORAC-FL method relative to control
# Assay type: physicochemical
# study_conditions: 0.25 h
Record True whenever fold change (FC) is at 1 or higher; record False when lower.

# mol, assigned_class
records = [
    ("COc1cc(O)c2c(=O)cc(C(=O)NCCCCCCN(C)Cc3ccccc3OC)oc2c1", "True"),
    ("CCN(CCCNC(=O)c1cc(=O)c2c(O)cc(OC)cc2o1)Cc1ccccc1OC", "False"),
    ("CCN(CCCCNC(=O)c1cc(=O)c2c(O)cc(O)cc2o1)Cc1ccccc1OC", "True"),
    ("CCN(CCCCCCNC(=O)c1cc(=O)c2c(O)cccc2o1)Cc1ccccc1OC", "False"),
    ("CCN(CCCNC(=O)c1cc(=O)c2c(O)cc(OC)cc2o1)Cc1ccccc1", "False"),
    ("CCN(CCCCCCNC(=O)c1cc(=O)c2c(O)cc(O)cc2o1)Cc1ccccc1OC", "True"),
    ("COc1ccccc1CN(C)CCCNC(=O)c1cc(=O)c2c(O)cccc2o1", "True"),
    ("CCN(CCCCCCNC(=O)c1cc(=O)c2c(O)cc(OC)cc2o1)Cc1ccccc1OC", "False"),
    ("O=C(O)c1cc(=O)c2c(O)cc(O)cc2o1", "True"),
    ("COc1cc(O)c2c(=O)cc(C(=O)NCCCN(C)Cc3ccccc3OC)oc2c1", "False"),
    ("COc1cc(O)c2c(=O)cc(C(=O)NCCCCN(C)Cc3ccccc3OC)oc2c1", "False"),
    ("COc1cc(O)c2c(=O)cc(C(=O)O)oc2c1", "False"),
    ("CCN(CCCCNC(=O)c1cc(=O)c2c(O)cccc2o1)Cc1ccccc1OC", "False"),
]

----------
# method: Inhibition of rat serum BuChE using butyrylthiocholine iodide as substrate after 15 mins by Ellman method
# Format: cell-free
Attribute: IC50
measured_attribute: IC50 (µM)

# mol, unit_spec, measured
data = [
    ("CCN(CCCNC(=O)c1cc(=O)c2c(O)cc(OC)cc2o1)Cc1ccccc1", "µM", 83.5),
    ("COc1cc(O)c2c(=O)cc(C(=O)NCCCCN(C)Cc3ccccc3OC)oc2c1", "µM", 82.1),
    ("CCN(CCCCNC(=O)c1cc(=O)c2c(O)cc(OC)cc2o1)Cc1ccccc1OC", "µM", 86.5),
    ("CCN(CCCCNC(=O)c1cc(=O)c2c(O)cc(N(C)C)cc2o1)Cc1ccccc1OC", "µM", 109),
]
